FYI, the data here is from ChEMBL document CHEMBL3808302.

tested on: Escherichia coli; assay: Cytotoxicity against Escherichia coli K-12 MG1655 cells at 250 uM; format: organism-based
METRIC: Activity

- COMPOUND: "COc1cc(NC(=O)c2cc3nc(-c4ccc(F)cc4)cc(C)n3n2)cc([N+](=O)[O-])c1"
  MEASUREMENT: "Non-toxic"
- COMPOUND: "CCc1ccc(C2C(C(=O)c3ccc(OC)cc3)=C(O)C(=O)N2CCc2c[nH]c3ccccc23)cc1 (centres undefined)"
  MEASUREMENT: "Non-toxic"
- COMPOUND: "CCOC(=O)c1ccc(NC(=O)CSc2nnc(CSc3nc(C)cc(C)n3)o2)cc1"
  MEASUREMENT: "Non-toxic"
- COMPOUND: "CCN1CCN(CCNC(=O)c2cccc(Nc3cc(-c4ccccc4)ncn3)c2)CC1"
  MEASUREMENT: "Non-toxic"

----------
system: Escherichia coli K-12; test: Inhibition of HipA in Escherichia coli K-12 MG1655 assessed as reduction of persister fraction incubated for 8 hrs in presence of ampicillin

- MOLECULE: "CCN1CCN(CCNC(=O)c2cccc(Nc3cc(-c4ccccc4)ncn3)c2)CC1"
  inhibition: "Dose-dependent effect"
- MOLECULE: "CCOC(=O)c1ccc(NC(=O)CSc2nnc(CSc3nc(C)cc(C)n3)o2)cc1"
  inhibition: "Dose-dependent effect"
- MOLECULE: "CCc1ccc(C2C(C(=O)c3ccc(OC)cc3)=C(O)C(=O)N2CCc2c[nH]c3ccccc23)cc1 (centres undefined)"
  inhibition: "Dose-dependent effect"
- MOLECULE: "COc1cc(NC(=O)c2cc3nc(-c4ccc(F)cc4)cc(C)n3n2)cc([N+](=O)[O-])c1"
  inhibition: "Dose-dependent effect"

----------
Assignment: determine reported fold change (FC) for the given compounds.
test system: Escherichia coli K-12; assay: Inhibition of HipA in Escherichia coli K-12 MG1655 assessed as reduction of persister fraction incubated for 8 hrs in presence of kanamycin relative to control
// return just the number, without any unit appended

Can you look up the measured fold change (FC) of `CCN1CCN(CCNC(=O)c2cccc(Nc3cc(-c4ccccc4)ncn3)c2)CC1` for me?
5

Can you look up the measured fold change (FC) of `COc1cc(NC(=O)c2cc3nc(-c4ccc(F)cc4)cc(C)n3n2)cc([N+](=O)[O-])c1` for me?
5

Can you look up the measured fold change (FC) of `CCOC(=O)c1ccc(NC(=O)CSc2nnc(CSc3nc(C)cc(C)n3)o2)cc1` for me?
3

----------
test system: Escherichia coli K-12; experiment: Inhibition of HipA in Escherichia coli K-12 MG1655 assessed as reduction of persister fraction at 250 uM incubated for 8 hrs in presence of ampicillin relative to control
METRIC: fold change (FC)
// return just the number, without any unit appended

For the record `CCOC(=O)c1ccc(NC(=O)CSc2nnc(CSc3nc(C)cc(C)n3)o2)cc1` , what value of fold change (FC) is listed for Escherichia coli K-12?
2

For the record `CCN1CCN(CCNC(=O)c2cccc(Nc3cc(-c4ccccc4)ncn3)c2)CC1` , what value of fold change (FC) is listed for Escherichia coli K-12?
5

For the record `COc1cc(NC(=O)c2cc3nc(-c4ccc(F)cc4)cc(C)n3n2)cc([N+](=O)[O-])c1` , what value of fold change (FC) is listed for Escherichia coli K-12?
5

For the record CCc1ccc(C2C(C(=O)c3ccc(OC)cc3)=C(O)C(=O)N2CCc2c[nH]c3ccccc23)cc1 (centres undefined) , what value of fold change (FC) is listed for Escherichia coli K-12?
5
